Source listed as paper PMC9549030.

target: UniProtKB P09936; assay: Ub-Rhodamine (Ubiquitin rhodamine cleavage) assay; type: biochemical; settings: compound 122.477 nM; 1 h preincubation; read-out: UCHL1 activity, data point mean
Value Type: remaining activity at 0.122477 µM (%)
Record the value in %, omitting the unit from your answer.

Give the reported remaining activity at 0.122477 µM for C#CCCCNC(=O)[C@H]1CCN(C#N)C1 [GK16S] (system: UniProtKB P09936).
87.4

Give the reported remaining activity at 0.122477 µM for C#CCCCNC(=O)[C@@H]1CCN(C#N)C1 [GK16R] (system: UniProtKB P09936).
93.7

Give the reported remaining activity at 0.122477 µM for C#CCCCNC(=O)c1ccc(-n2cnc(NC(=O)[C@@H]3CCNC3)c2)cc1 [GK12R] (system: UniProtKB P09936).
95.6

Give the reported remaining activity at 0.122477 µM for C#CCCCNC(=O)c1ccc(-n2cnc(NC(=O)[C@H]3CCNC3)c2)cc1 [GK12S] (system: UniProtKB P09936).
91.4

* * *

target: UCHL1 (Homo sapiens); test: Ub-Rhodamine (Ubiquitin rhodamine cleavage) assay; assay type: biochemical; conditions: compound 13.6085 nM; 1 h preincubation; read-out: UCHL1 activity, data point mean
Value Type: remaining activity at 0.0136085 µM (%)
Record the value in %, omitting the unit from your answer.

Give the reported remaining activity at 0.0136085 µM for C#CCCCNC(=O)[C@H]1CCN(C#N)C1 [GK16S] (system: UCHL1 (Homo sapiens)).
96.8

Give the reported remaining activity at 0.0136085 µM for C#CCCCNC(=O)[C@@H]1CCN(C#N)C1 [GK16R] (system: UCHL1 (Homo sapiens)).
96.6

Give the reported remaining activity at 0.0136085 µM for C#CCCCNC(=O)c1ccc(-n2cnc(NC(=O)[C@@H]3CCNC3)c2)cc1 [GK12R] (system: UCHL1 (Homo sapiens)).
94.4

Give the reported remaining activity at 0.0136085 µM for C#CCCCNC(=O)c1ccc(-n2cnc(NC(=O)[C@H]3CCNC3)c2)cc1 [GK12S] (system: UCHL1 (Homo sapiens)).
97.1

* * *

biological target: UCHL3 A11I+L168F (Homo sapiens, UniProt P15374, A11I/L168F); test: Ub-Rhodamine (Ubiquitin rhodamine cleavage) assay; type: biochemical; details: Supplementary Fig. 10d; 5 mM DTT in buffer H; read-out: IC50 (UCHL3 A11I+L168F)
Value Type: pIC50
Value format note: pIC50 is -log10 of concentration (mol/L); just state the number.

What pIC50 value was documented for this molecule, NC(=O)CI [IAA, iodoacetamide, reference compound] ?
2.66

* * *

molecular target: UCHL1 (Homo sapiens); assay: Ub-Rhodamine (Ubiquitin rhodamine cleavage) assay; type: biochemical; settings: compound 367.431 nM; 1 h preincubation; read-out: UCHL1 activity, data point mean
Assignment: determine reported remaining activity at 0.367431 µM for the given molecules.
Kindly report the value followed by its unit.

What remaining activity at 0.367431 µM value was documented for this molecule, C#CCCCNC(=O)[C@H]1CCN(C#N)C1 [GK16S] ?
90.4%

What remaining activity at 0.367431 µM value was documented for this molecule, C#CCCCNC(=O)[C@@H]1CCN(C#N)C1 [GK16R] ?
92.4%

What remaining activity at 0.367431 µM value was documented for this molecule, C#CCCCNC(=O)c1ccc(-n2cnc(NC(=O)[C@H]3CCNC3)c2)cc1 [GK12S] ?
92.8%

What remaining activity at 0.367431 µM value was documented for this molecule, C#CCCCNC(=O)c1ccc(-n2cnc(NC(=O)[C@@H]3CCNC3)c2)cc1 [GK12R] ?
94.6%

* * *

target: UCHL1 (Homo sapiens); experiment: Ub-Rhodamine (Ubiquitin rhodamine cleavage) assay; format: biochemical; conditions: compound 40.8257 nM; 1 h preincubation; read-out: UCHL1 activity, data point mean
Value Type: remaining activity at 0.0408257 µM
Kindly report the value followed by its unit.

What remaining activity at 0.0408257 µM value was documented for this molecule, C#CCCCNC(=O)[C@H]1CCN(C#N)C1 [GK16S] ?
83.7%

What remaining activity at 0.0408257 µM value was documented for this molecule, C#CCCCNC(=O)[C@@H]1CCN(C#N)C1 [GK16R] ?
94.5%

What remaining activity at 0.0408257 µM value was documented for this molecule, C#CCCCNC(=O)c1ccc(-n2cnc(NC(=O)[C@H]3CCNC3)c2)cc1 [GK12S] ?
88.7%

What remaining activity at 0.0408257 µM value was documented for this molecule, C#CCCCNC(=O)c1ccc(-n2cnc(NC(=O)[C@@H]3CCNC3)c2)cc1 [GK12R] ?
95.3%

* * *

Assignment: determine reported remaining activity at 0.00151206 µM for the given molecules.
target: UCHL1 (Homo sapiens, UniProt P09936); test: Ub-Rhodamine (Ubiquitin rhodamine cleavage) assay; assay type: biochemical; settings: compound 1.51206 nM; 1 h preincubation; read-out: UCHL1 activity, data point mean
Sequence (P09936 whole entry): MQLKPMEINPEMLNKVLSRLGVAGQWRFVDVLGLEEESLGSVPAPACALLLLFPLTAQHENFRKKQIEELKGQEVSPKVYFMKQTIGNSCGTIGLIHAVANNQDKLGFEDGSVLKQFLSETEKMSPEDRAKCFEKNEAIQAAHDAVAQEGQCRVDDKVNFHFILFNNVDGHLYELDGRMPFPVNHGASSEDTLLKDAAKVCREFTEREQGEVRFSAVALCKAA
Record the value in %, omitting the unit from your answer.

Give the reported remaining activity at 0.00151206 µM for C#CCCCNC(=O)c1ccc(-n2cnc(NC(=O)[C@@H]3CCNC3)c2)cc1 [GK12R] (system: UCHL1 (Homo sapiens, UniProt P09936)).
97.9

Give the reported remaining activity at 0.00151206 µM for C#CCCCNC(=O)[C@H]1CCN(C#N)C1 [GK16S] (system: UCHL1 (Homo sapiens, UniProt P09936)).
89.7

Give the reported remaining activity at 0.00151206 µM for C#CCCCNC(=O)c1ccc(-n2cnc(NC(=O)[C@H]3CCNC3)c2)cc1 [GK12S] (system: UCHL1 (Homo sapiens, UniProt P09936)).
91.7

Give the reported remaining activity at 0.00151206 µM for C#CCCCNC(=O)[C@@H]1CCN(C#N)C1 [GK16R] (system: UCHL1 (Homo sapiens, UniProt P09936)).
91.4

* * *

biological target: UCHL3 A11I (Homo sapiens, UniProt P15374, A11I); test: Ub-Rhodamine (Ubiquitin rhodamine cleavage) assay; assay type: biochemical
Value Type: pIC50
Value format note: pIC50 is -log10 of concentration (mol/L); just state the number.

What pIC50 value was documented for this compound, C#CCCCNC(=O)c1ccc(-n2cnc(NC(=O)[C@H]3CCN(C#N)C3)c2)cc1 [GK13S] ?
4.49

* * *

target: UCHL1 (Homo sapiens); experiment: Ub-Rhodamine (Ubiquitin rhodamine cleavage) assay; type: biochemical; conditions: Fig. 6b; catalytic domain; 1 h preincubation with GK13S; read-out: IC50 (UCHL1)
Value Type: IC50 (nM)
Record the value in nM, omitting the unit from your answer.

What IC50 value was documented for this molecule, C#CCCCNC(=O)c1ccc(-n2cnc(NC(=O)[C@H]3CCN(C#N)C3)c2)cc1 [GK13S] ?
87

* * *

molecular target: UCHL3 L168F (Homo sapiens, UniProt P15374, L168F); experiment: Ub-Rhodamine (Ubiquitin rhodamine cleavage) assay; type: biochemical
Value Type: IC50 (µM)
Record the value in µM, omitting the unit from your answer.

Give the reported IC50 for C#CCCCNC(=O)c1ccc(-n2cnc(NC(=O)[C@H]3CCN(C#N)C3)c2)cc1 [GK13S] (system: UCHL3 L168F (Homo sapiens, UniProt P15374, L168F)).
33

* * *

Assignment: determine reported remaining activity at 3.30688 µM for the given compounds.
molecular target: UCHL1 (Homo sapiens); assay: Ub-Rhodamine (Ubiquitin rhodamine cleavage) assay; format: biochemical; details: compound 3306.88 nM; 1 h preincubation; read-out: UCHL1 activity, data point mean
Record the value in %, omitting the unit from your answer.

What remaining activity at 3.30688 µM value was documented for this compound, C#CCCCNC(=O)c1ccc(-n2cnc(NC(=O)[C@H]3CCNC3)c2)cc1 [GK12S] ?
88.8

What remaining activity at 3.30688 µM value was documented for this compound, C#CCCCNC(=O)[C@@H]1CCN(C#N)C1 [GK16R] ?
89

What remaining activity at 3.30688 µM value was documented for this compound, C#CCCCNC(=O)c1ccc(-n2cnc(NC(=O)[C@@H]3CCNC3)c2)cc1 [GK12R] ?
94.2

What remaining activity at 3.30688 µM value was documented for this compound, C#CCCCNC(=O)[C@H]1CCN(C#N)C1 [GK16S] ?
90.9

* * *

Molecular target: UCHL3 L168F (Homo sapiens, UniProt P15374, L168F)
Sequence (P15374 1-230 L168F): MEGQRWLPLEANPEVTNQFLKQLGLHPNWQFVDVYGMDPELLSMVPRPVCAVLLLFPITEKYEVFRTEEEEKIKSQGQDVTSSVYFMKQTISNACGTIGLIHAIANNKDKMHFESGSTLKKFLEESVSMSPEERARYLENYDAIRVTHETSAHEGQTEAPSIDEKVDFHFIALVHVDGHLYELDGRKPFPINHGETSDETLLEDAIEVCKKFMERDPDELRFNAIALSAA
Assay: Ub-Rhodamine (Ubiquitin rhodamine cleavage) assay
Format: biochemical
Settings: Supplementary Fig. 10d; 5 mM DTT in buffer H; read-out: IC50 (UCHL3 L168F)
Value Type: IC50 (mM)
Record the value in mM, omitting the unit from your answer.

What IC50 value was documented for this compound, NC(=O)CI [IAA, iodoacetamide, reference compound] ?
2
